Please respond with reported pIC50 for every item in the list.
# Target Or System: Urokinase (Abbokinase) (Homo sapiens, UniProt P00749)
# Run Description: Urokinase chromogenic substrate (S-2444) IC50 assay
pIC50: −log10 of the molar value. Starred links: 1 amine or outer side, 2 acyl side, 3 side chain; linkers in the order of their positions; H or OH if unused. Non-standard residues stand in square brackets, D forms with d. Residues, ends and D or L forms follow the SMILES beside them. *: point of attachment. Hydrocinnamoyl = O=C(CCc1ccccc1)*; ΔPro = O=C(O)[C@@H]1C=CCN1; Isovaleryl = CC(C)CC(=O)*; dDap = NC[C@@H](N)C(=O)O; Cbz = O=C(OCc1ccccc1)*; CO = O=C([*:1])[*:2]; NHBn = c1ccc(CN*)cc1

{"columns": ["Compound", "Target Or System", "pIC50"],
 "data": [
  ["CC(C)CC(=O)N[C@H](CO)C(=O)N[C@@H](C)C(=O)N[C@H](C=O)CCCNC(=N)N [Compound 39, isovaleryl-D-seryl-alanyl-argininal] (Isovaleryl-[dS]-Ala-Arg-aldehyde)", "Urokinase (Abbokinase) (Homo sapiens, UniProt P00749)", "5.60 to 6.60"],
  ["C[C@H](NC(=O)[C@@H](CO)NS(=O)(=O)CCc1ccccc1)C(=O)N[C@H](C=O)CCCNC(=N)N [Compound 47]", "Urokinase (Abbokinase) (Homo sapiens, UniProt P00749)", "> 7.00"],
  ["C[C@H](NC(=O)[C@@H](CO)NS(=O)(=O)/C=C/c1ccccc1)C(=O)N[C@H](C=O)CCCNC(=N)N [Compound 53]", "Urokinase (Abbokinase) (Homo sapiens, UniProt P00749)", "> 7.00"]
]}

Please supply pIC50 for each of the following items, keeping them in order.
1. N=C(N)NCCC[C@@H](C=O)NC(=O)[C@@H]1C=CCN1C(=O)[C@@H](CO)NC(=O)OCc1ccccc1 [Compound 50] (Cbz-[dS]-[ΔPro]-Arg-aldehyde)
2. C[C@H](O)[C@@H](NC(=O)OCc1ccccc1)C(=O)N1CCC[C@H]1C(=O)N[C@H](C=O)CCCNC(=N)N [Compound 26] (Cbz-[dT]-Pro-Arg-aldehyde)
3. CSC[C@H](NC(=O)[C@@H](CO)NC(=O)OCc1ccccc1)C(=O)N[C@H](C=O)CCCNC(=N)N [Compound 15] (Cbz-[dS]-Cys(Me)-Arg-aldehyde)
4. CC(C)COC(=O)N[C@H](CO)C(=O)N[C@@H](C)C(=O)N[C@H](C=O)CCCNC(=N)N [Compound 1]
5. C[C@H](NC(=O)[C@@H](CO)NC(=O)Oc1ccccc1)C(=O)N[C@H](C=O)CCCNC(=N)N [Compound 5, phenoxycarbonyl-D-seryl-alanyl-argininal]
6. C[C@H](NC(=O)[C@@H](CO)NC(=O)NCc1ccccc1)C(=O)N[C@H](C=O)CCCNC(=N)N [Compound 38] ({NHBn-CO}-[dS]-Ala-Arg-aldehyde)
7. C[C@H](NC(=O)[C@@H](CNC(=O)CCc1ccccc1)NC(=O)OCc1ccccc1)C(=O)N[C@H](C=O)CCCNC(=N)N [Compound 41] (Cbz-[dDap](Hydrocinnamoyl)-Ala-Arg-aldehyde)

Solution:
1: > 7.00; 2: 6.60 to 7.00; 3: 6.60 to 7.00; 4: > 7.00; 5: > 7.00; 6: 6.60 to 7.00; 7: 5.60 to 6.60

Exercise: Print Urokinase (Abbokinase) (Homo sapiens, UniProt P00749) pIC50 for CCCCC(CC)COC(=O)N[C@H](CO)C(=O)N[C@@H](C)C(=O)N[C@H](C=O)CCCNC(=N)N (some centres unmarked) [Compound 6] .
Solution: > 7.00

----------
# Target Or System: human plasmin (Homo sapiens, UniProt P00747)
# Sequence (P00747 581-810 limits assumed): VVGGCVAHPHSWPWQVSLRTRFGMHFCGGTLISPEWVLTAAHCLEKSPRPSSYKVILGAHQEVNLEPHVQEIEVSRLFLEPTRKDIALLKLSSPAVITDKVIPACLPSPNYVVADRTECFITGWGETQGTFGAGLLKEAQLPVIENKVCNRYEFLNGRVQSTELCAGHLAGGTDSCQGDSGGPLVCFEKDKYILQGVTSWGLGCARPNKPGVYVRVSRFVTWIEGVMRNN
# Sequence (P00747 97-580 partner limits assumed): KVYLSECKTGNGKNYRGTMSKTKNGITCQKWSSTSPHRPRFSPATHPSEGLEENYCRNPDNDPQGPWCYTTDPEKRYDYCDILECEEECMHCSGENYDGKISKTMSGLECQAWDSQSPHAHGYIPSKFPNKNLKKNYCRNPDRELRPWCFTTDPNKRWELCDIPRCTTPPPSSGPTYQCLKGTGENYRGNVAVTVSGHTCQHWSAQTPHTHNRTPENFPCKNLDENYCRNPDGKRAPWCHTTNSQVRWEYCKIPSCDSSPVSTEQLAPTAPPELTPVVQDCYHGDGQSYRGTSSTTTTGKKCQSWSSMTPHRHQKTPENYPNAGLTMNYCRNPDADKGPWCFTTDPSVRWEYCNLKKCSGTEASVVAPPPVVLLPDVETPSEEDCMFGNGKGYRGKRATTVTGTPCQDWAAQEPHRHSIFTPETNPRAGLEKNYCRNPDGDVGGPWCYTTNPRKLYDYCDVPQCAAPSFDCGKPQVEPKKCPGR
pIC50: −log10 of the molar value. Non-standard residues stand in square brackets, D forms with d. Residues, ends and D or L forms follow the SMILES beside them. *: point of attachment. d(aThr) = C[C@@H](O)[C@@H](N)C(=O)O; AllylGly = C=CC[C@H](N)C(=O)O; d(hSer) = N[C@H](CCO)C(=O)O; ΔPro = O=C(O)[C@@H]1C=CCN1; Isovaleryl = CC(C)CC(=O)*; dDap = NC[C@@H](N)C(=O)O; Cbz = O=C(OCc1ccccc1)*; Moc = COC(=O)*
Provide the recorded pIC50 for the entries that follow.

Example entries begin here.
{"columns": ["Compound", "pIC50"],
 "data": [
  ["N=C(N)NCCC[C@@H](C=O)NC(=O)[C@@H]1C=CCN1C(=O)[C@@H](CO)NC(=O)OCc1ccccc1 [Compound 50] (Cbz-[dS]-[ΔPro]-Arg-aldehyde)", "6.60 to 7.00"],
  ["N=C(N)NCCC[C@@H](C=O)NC(=O)[C@@H]1CCCN1C(=O)[C@@H](CCO)NC(=O)OCc1ccccc1 [Compound 27] (Cbz-[d(hSer)]-Pro-Arg-aldehyde)", "> 7.00"],
  ["CC(C)COC(=O)N[C@H](CO)C(=O)N[C@@H](C)C(=O)NC(CCCN=C(N)N)C(=O)C(=O)NCCc1ccccc1 (stereo partly drawn) [Compound 30]", "5.60 to 6.60"],
  ["COC(=O)NC[C@@H](NC(=O)OCc1ccccc1)C(=O)N[C@@H](C)C(=O)N[C@H](C=O)CCCNC(=N)N [Compound 43] (Cbz-[dDap](Moc)-Ala-Arg-aldehyde)", "5.60 to 6.60"],
  ["C[C@H](NC(=O)[C@@H](CO)NS(=O)(=O)Cc1ccccc1)C(=O)N[C@H](C=O)CCCN=C(N)N [Compound 29, Benzylsulfonyl-D-Ser-Ala-Arg-al]", "5.60 to 6.60"]
]}

Below is a list of compounds. For each, state its recorded pIC50.
1. C[C@H](NC(=O)[C@H](NC(=O)OCc1ccccc1)[C@@H](C)O)C(=O)N[C@H](C=O)CCCNC(=N)N [Compound 19] (Cbz-[d(aThr)]-Ala-Arg-aldehyde)
2. CC(C)CC(=O)N[C@H](CO)C(=O)N[C@@H](C)C(=O)N[C@H](C=O)CCCNC(=N)N [Compound 39, isovaleryl-D-seryl-alanyl-argininal] (Isovaleryl-[dS]-Ala-Arg-aldehyde)

Solution:
1: 5.60 to 6.60; 2: < 5.60

Consider the following items and state reported pIC50 for each.
1. C=CC[C@H](NC(=O)[C@@H](CO)NC(=O)OCc1ccccc1)C(=O)N[C@H](C=O)CCCNC(=N)N [Compound 52] (Cbz-[dS]-[AllylGly]-Arg-aldehyde)
2. N=C(N)NCCC[C@@H](C=O)NC(=O)[C@H](CO)NC(=O)[C@@H](CO)NC(=O)OCc1ccccc1 [Compound 45] (Cbz-[dS]-Ser-Arg-aldehyde)

Solution:
5.60 to 6.60
5.60 to 6.60

----------
# Target Or System: Urokinase (Abbokinase) (Homo sapiens, UniProt P00749)
# Run Description: Urokinase chromogenic substrate (S-2444) IC50 assay
# Reported Conditions: read-out: uPA IC50; 30 minute preincubation, HBSA buffer
pIC50: −log10 of the molar value.
Assign pIC50 to each entry below.

// known answers, use as guide
{"columns": ["Molecule", "Parameter", "Endpoint Result"],
 "data": [
  ["C[C@H](NC(=O)[C@@H](CO)NCCCc1ccccc1)C(=O)N[C@H](C=O)CCCNC(=N)N [Compound 32]", "pIC50", "> 7.00"],
  ["C[C@H](NC(=O)[C@@H](CO)NS(=O)(=O)Cc1ccccc1)C(=O)N[C@H](C=O)CCCN=C(N)N [Compound 29, Benzylsulfonyl-D-Ser-Ala-Arg-al]", "pIC50", "> 7.00"],
  ["CC1CCC(C(C)C)C(OC(=O)N[C@H](CO)C(=O)N[C@@H](C)C(=O)N[C@H](C=O)CCCNC(=N)N)C1 (single isomer, unassigned; (-)) [Compound 3]", "pIC50", "> 7.00"]
]}

# map each molecule to its pIC50
1. C[C@H](NC(=O)[C@@H](CO)NS(=O)(=O)c1ccccc1)C(=O)N[C@H](C=O)CCCN=C(N)N [Compound 28, Benzenesufonyl-D-Ser-L-Ala-L-Arg-al]
2. CC(C)COC(=O)N[C@H](CO)C(=O)N[C@@H](C)C(=O)NC(CCCN=C(N)N)C(=O)C(=O)NCCc1ccccc1 (stereo partly drawn) [Compound 30]
3. N=C(N)NCCCC(C=O)NC(=O)C1CCN1C(=O)C(CO)NS(=O)(=O)c1ccccc1 (stereo not drawn) [Compound 31]

Solution:
["> 7.00", "6.60 to 7.00", "> 7.00"]

----------
What IC50 was measured for each of the following?
# Target Or System: Urokinase (Abbokinase) (Homo sapiens, UniProt P00749)
# Run Description: Urokinase chromogenic substrate (S-2444) IC50 assay
Non-standard residues stand in square brackets, D forms with d. Residues, ends and D or L forms follow the SMILES beside them. *: point of attachment. Cbz = O=C(OCc1ccccc1)*; Sar = CNCC(=O)O

Consider the worked cases shown below.
{"columns": ["Molecule", "IC50"],
 "data": [
  ["C[C@H](NC(=O)[C@H](NC(=O)OCc1ccccc1)[C@H](C)O)C(=O)N[C@H](C=O)CCCNC(=N)N [Compound 22] (Cbz-[dT]-Ala-Arg-aldehyde)", "250 to 2500 nM"],
  ["CN(CC(=O)N[C@H](C=O)CCCNC(=N)N)C(=O)[C@@H](CO)NC(=O)OCc1ccccc1 [Compound 18] (Cbz-[dS]-[Sar]-Arg-aldehyde)", "250 to 2500 nM"]
]}

Next item in the queue.
Exercise: Report IC50, nothing else, for this molecule: CCCC(NC(=O)[C@@H](CO)NC(=O)OCc1ccccc1)C(=O)NC(C=O)CCCNC(=N)N (stereo partly drawn)
Solution: 100 to 250 nM

Reference for the values: patent US6432922B1
